molecular target: UniProtKB P10275; assay: Degradation of androgen receptor (AR) protein in VCaP cells by Western blot; format: cell-based; details: percentage of degraded AR at 100 nM, VCaP cells, 16 h
Sequence (P10275 whole entry): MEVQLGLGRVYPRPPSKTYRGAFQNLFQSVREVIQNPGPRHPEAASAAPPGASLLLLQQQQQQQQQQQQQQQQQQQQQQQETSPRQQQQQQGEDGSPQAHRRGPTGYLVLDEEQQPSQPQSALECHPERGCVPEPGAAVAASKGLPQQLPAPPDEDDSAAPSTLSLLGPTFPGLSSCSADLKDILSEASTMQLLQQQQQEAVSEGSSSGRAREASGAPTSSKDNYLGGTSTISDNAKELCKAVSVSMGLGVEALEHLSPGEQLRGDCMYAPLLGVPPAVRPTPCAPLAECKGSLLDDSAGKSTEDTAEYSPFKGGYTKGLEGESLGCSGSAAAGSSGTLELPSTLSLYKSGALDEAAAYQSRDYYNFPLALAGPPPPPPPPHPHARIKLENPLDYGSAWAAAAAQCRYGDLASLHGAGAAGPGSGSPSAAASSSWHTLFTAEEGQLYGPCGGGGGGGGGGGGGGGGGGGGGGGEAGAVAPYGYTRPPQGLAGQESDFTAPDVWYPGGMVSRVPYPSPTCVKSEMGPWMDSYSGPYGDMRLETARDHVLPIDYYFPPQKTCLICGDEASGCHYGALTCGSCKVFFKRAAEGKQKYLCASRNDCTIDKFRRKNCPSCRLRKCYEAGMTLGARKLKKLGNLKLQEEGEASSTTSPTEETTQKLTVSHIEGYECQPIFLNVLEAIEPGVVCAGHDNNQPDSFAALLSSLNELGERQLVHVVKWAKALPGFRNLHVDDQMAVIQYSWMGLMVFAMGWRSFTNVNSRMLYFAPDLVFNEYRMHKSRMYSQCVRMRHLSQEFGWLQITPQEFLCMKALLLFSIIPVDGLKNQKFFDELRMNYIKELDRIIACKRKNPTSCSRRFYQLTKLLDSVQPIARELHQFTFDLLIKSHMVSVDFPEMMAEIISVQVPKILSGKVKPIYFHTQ
EXPERIMENTAL_READOUT: inhibition at 0.1 µM

Ask: Give UniProtKB P10275 inhibition at 0.1 µM for N#Cc1ccc(O[C@H]2CC[C@H](NC(=O)c3cnc(N4CCC(CN5CC6CN(c7ccc8c(c7)C(=O)N(C7CCC(=O)NC7=O)C8=O)CC6C5)CC4)cn3)CC2)cc1Cl (some centres unmarked) [Compound 254]
Reply: 50 to 79%

Ask: Give UniProtKB P10275 inhibition at 0.1 µM for N#Cc1ccc(O[C@H]2CC[C@H](NC(=O)c3ccc(N4CCC(CN5CCC6(C5)CN(c5cc7c(cc5F)C(=O)N(C5CCC(=O)NC5=O)C7=O)C6)CC4)nn3)CC2)cc1Cl (some centres unmarked) [Compound 184]
Reply: > 80%

Ask: Give UniProtKB P10275 inhibition at 0.1 µM for CC1(C)[C@H](NC(=O)c2ccc(N3CCC(N4C[C@H]5CN(c6cc7c(cc6F)C(=O)N(C6CCC(=O)NC6=O)C7=O)C[C@H]5C4)CC3)nn2)C(C)(C)[C@H]1Oc1ccc(C#N)c(Cl)c1 (some centres unmarked) [Compound 221]
Reply: 25 to 49%

Ask: Give UniProtKB P10275 inhibition at 0.1 µM for N#Cc1ccc(O[C@H]2CC[C@H](NC(=O)c3cnc(N4CCC(CN5CCC(Nc6cc7c(cc6F)C(=O)N(C6CCC(=O)NC6=O)C7=O)CC5)CC4)cn3)CC2)cc1Cl (some centres unmarked) [Compound 145]
Reply: > 80%

Ask: Give UniProtKB P10275 inhibition at 0.1 µM for N#Cc1ccc(O[C@H]2CC[C@H](NC(=O)c3ccc(N4CCC(CN5CC6CN(c7cc8c(cc7F)C(=O)N(C7CCC(=O)NC7=O)C8=O)CC6C5)CC4)nn3)CC2)cc1Cl (some centres unmarked) [Compound 253]
Reply: 50 to 79%
